Attribute: pIC50
System: MDA-MB-468
Protocol Notes: Cytotoxicity against human MDA-MB-468 cells assessed as cell growth inhibition measured after 2 days by cell counting kit-8 assay
Assay type: functional, cell-based
Test Settings: MDA-MB-468, 48 h
Counter-ions that a name gives are not always drawn.
Just the number, please; pIC50 means minus log10 of the concentration in mol/L.

Here are 5 molecules together with their reported answers.
Molecule	pIC50
O=C(/C=C/c1ccco1)c1ccccc1OCC1CO1 (centres undefined)	4.32
O=C(/C=C/c1cccs1)c1ccc(OCC2CO2)cc1 (centres undefined)	4.76
O=C(/C=C/c1ccsc1)c1ccc(OCC2CS2)cc1 (centres undefined)	4.62
O=C(/C=C/c1ccc(OCC2CS2)cc1)c1ccco1 (centres undefined)	5.08
O=C(/C=C/c1cccs1)c1ccc(OCC2CS2)cc1 (centres undefined)	5.28

Looking up O=C(/C=C/c1ccc(OCC(O)CCl)cc1)c1cccs1 (centres undefined) , I found its pIC50 recorded as 5.11

Looking up O=C(/C=C/c1cccs1)c1ccccc1OCC1CO1 (centres undefined) , I found its pIC50 recorded as 5.11

Looking up O=C(/C=C/c1cccs1)c1ccccc1OCC1CS1 (centres undefined) , I found its pIC50 recorded as 5.36

Looking up O=C(/C=C/c1ccco1)c1ccc(OCC2CO2)cc1 (centres undefined) , I found its pIC50 recorded as 4.31

Looking up O=C(/C=C/c1ccco1)c1cccc(OCC2CS2)c1 (centres undefined) , I found its pIC50 recorded as 5.14

Looking up O=C(/C=C/c1ccoc1)c1ccc(OCC2CS2)cc1 (centres undefined) , I found its pIC50 recorded as 5.28

Looking up O=C(/C=C/c1ccc(OCC2CO2)cc1)c1ccco1 (centres undefined) , I found its pIC50 recorded as 4.76

Looking up COc1cccc2c1C(=O)c1c(O)c3c(c(O)c1C2=O)C[C@@](O)(C(=O)CO)C[C@@H]3O[C@H]1C[C@H](N)[C@H](O)[C@H](C)O1 [DOXORUBICIN HYDROCHLORIDE] , I found its pIC50 recorded as 5.67

Looking up O=C(/C=C/c1ccco1)c1ccccc1OCC1CS1 (centres undefined) , I found its pIC50 recorded as 5.08

* * *

Target: DNA topoisomerase 2-alpha (Homo sapiens)
Protocol Notes: Inhibition of human DNA topoisomerase 2alpha assessed as decrease in relaxation of supercoiled pBR322 plasmid DNA at 100 uM using supercoiled pBR322 plasmid DNA as substrate incubated for 30 mins in presence of ATP by ethidium bromide staining-based UV imaging analysis relative to control
Attribute: inhibition
Hi! Could you send only the number? It should be in %, unit omitted.

Here are 8 compounds together with their reported answers.
> print(dat)
                                   compound                                    target  value
1  O=C(/C=C/c1ccco1)c1cccc(OCC2CO2)c1 (stereo not drawn)  DNA topoisomerase 2-alpha (Homo sapiens)   67.6
2  O=C(/C=C/c1cccs1)c1cccc(OCC2CS2)c1 (stereo not drawn)  DNA topoisomerase 2-alpha (Homo sapiens)    3.7
3  O=C(/C=C/c1cccs1)c1ccc(OCC2CO2)cc1 (stereo not drawn)  DNA topoisomerase 2-alpha (Homo sapiens)    0.6
4  O=C(/C=C/c1cccs1)c1ccccc1OCC1CS1 (stereo not drawn)  DNA topoisomerase 2-alpha (Homo sapiens)    0.4
5  O=C(/C=C/c1cccs1)c1ccc(OCC2CS2)cc1 (stereo not drawn)  DNA topoisomerase 2-alpha (Homo sapiens)      0
6  O=C(/C=C/c1ccc(OCC(O)CCl)cc1)c1ccco1 (stereo not drawn)  DNA topoisomerase 2-alpha (Homo sapiens)      0
7  O=C(/C=C/c1ccc(OCC2CO2)cc1)c1ccco1 (stereo not drawn)  DNA topoisomerase 2-alpha (Homo sapiens)      0
8  O=C(/C=C/c1ccsc1)c1ccc(OCC2CS2)cc1 (stereo not drawn)  DNA topoisomerase 2-alpha (Homo sapiens)      0

Looking up O=C(/C=C/c1ccco1)c1ccccc1OCC1CS1 (stereo not drawn) , I found its inhibition recorded as 95.4

Looking up O=C(/C=C/c1ccco1)c1cccc(OCC2CS2)c1 (stereo not drawn) , I found its inhibition recorded as 90.4

Looking up O=C(/C=C/c1cccs1)c1cccc(OCC2CO2)c1 (stereo not drawn) , I found its inhibition recorded as 3.9

Looking up O=C(/C=C/c1ccco1)c1ccc(OCC2CO2)cc1 (stereo not drawn) , I found its inhibition recorded as 6.6

* * *

System: MDA-MB-231
Protocol Notes: Cytotoxicity against human MDA-MB-231 cells assessed as cell growth inhibition measured after 2 days by cell counting kit-8 assay
Format: functional, cell-based
Test Settings: MDA-MB-231, 48 h
Property: IC50 (µM)
Hi! Could you send only the number? It should be in µM, unit omitted.

Here are 2 compounds together with their reported answers.
> print(dat)
                                   compound  value
1  O=C(/C=C/c1cccs1)c1cccc(OCC2CO2)c1 (stereo unspecified)   15.4
2  O=C(/C=C/c1cccs1)c1ccccc1OCC1CS1 (stereo unspecified)   17.9

Looking up O=C(/C=C/c1ccco1)c1ccccc1OCC1CO1 (stereo unspecified) , I found its IC50 recorded as 28.7

Looking up O=C(/C=C/c1ccsc1)c1ccc(OCC2CO2)cc1 (stereo unspecified) , I found its IC50 recorded as 11.1

Looking up O=C(/C=C/c1ccco1)c1cccc(OCC2CO2)c1 (stereo unspecified) , I found its IC50 recorded as 27.8

Looking up O=C(/C=C/c1ccc(OCC(O)CCl)cc1)c1cccs1 (stereo unspecified) , I found its IC50 recorded as 30.3

* * *

Attribute: log10 of IC50
Test system: MDA-MB-468
Protocol Notes: Cytotoxicity against human MDA-MB-468 cells assessed as cell growth inhibition measured after 2 days by cell counting kit-8 assay
Type: functional, cell-based
Test Settings: MDA-MB-468, 48 h
Lab note - IC50 converted to log10 from values in µM.

Here are 3 compounds together with their reported answers.
Compound	log10 of IC50
COc1cc([C@@H]2c3cc4c(cc3[C@@H](O[C@@H]3O[C@@H]5CO[C@@H](C)O[C@H]5[C@H](O)[C@H]3O)[C@H]3COC(=O)[C@H]23)OCO4)cc(OC)c1O [ETOPOSIDE]	-0.07
CC[C@@]1(O)C(=O)OCc2c1cc1n(c2=O)Cc2cc3ccccc3nc2-1	0.23
O=C(/C=C/c1cccs1)c1cccc(OCC2CO2)c1 (stereo unspecified)	1.21

Next:
Looking up O=C(/C=C/c1ccc(OCC(O)CCl)cc1)c1ccco1 (stereo unspecified) , I found its log10 of IC50 recorded as 0.98

* * *

Tested on: MDA-MB-231
Protocol Notes: Cytotoxicity against human MDA-MB-231 cells assessed as cell growth inhibition measured after 2 days by cell counting kit-8 assay
Format: functional, cell-based
Test Settings: MDA-MB-231, 48 h
Property: pIC50
Just the number, please; pIC50 means minus log10 of the concentration in mol/L.

> print(dat)
                                   compound      target  property  value
1  O=C(/C=C/c1ccoc1)c1ccc(OCC2CS2)cc1 (centres undefined)  MDA-MB-231     pIC50   4.71
2  O=C(/C=C/c1ccco1)c1ccc(OCC2CS2)cc1 (centres undefined)  MDA-MB-231     pIC50   4.74
3  O=C(/C=C/c1cccs1)c1cccc(OCC2CS2)c1 (centres undefined)  MDA-MB-231     pIC50   4.70

Looking up O=C(/C=C/c1cccs1)c1ccc(OCC2CO2)cc1 (centres undefined) , I found its pIC50 recorded as 4.55

Looking up O=C(/C=C/c1ccc(OCC2CO2)cc1)c1cccs1 (centres undefined) , I found its pIC50 recorded as 4.86

Looking up O=C(/C=C/c1ccc(OCC2CS2)cc1)c1cccs1 (centres undefined) , I found its pIC50 recorded as 4.76

Looking up O=C(/C=C/c1ccoc1)c1ccc(OCC2CO2)cc1 (centres undefined) , I found its pIC50 recorded as 4.58

Looking up O=C(/C=C/c1ccco1)c1ccc(OCC2CO2)cc1 (centres undefined) , I found its pIC50 recorded as 4.33

* * *

Attribute: IC50
Test system: MDA-MB-231
Protocol Notes: Cytotoxicity against human MDA-MB-231 cells assessed as cell growth inhibition measured after 2 days by cell counting kit-8 assay
Assay type: functional, cell-based
Test Settings: MDA-MB-231, 48 h
Counter-ions that a name gives are not always drawn.
Hi! Could you send only the number? It should be in µM, unit omitted.

Compound	Property	Value
O=C(/C=C/c1ccco1)c1cccc(OCC2CS2)c1 (stereo not given)	IC50	28.9
O=C(/C=C/c1ccco1)c1ccccc1OCC1CS1 (stereo not given)	IC50	32.2
COc1cc([C@@H]2c3cc4c(cc3[C@@H](O[C@@H]3O[C@@H]5CO[C@@H](C)O[C@H]5[C@H](O)[C@H]3O)[C@H]3COC(=O)[C@H]23)OCO4)cc(OC)c1O [ETOPOSIDE]	IC50	9.13
O=C(/C=C/c1cccs1)c1ccc(OCC2CS2)cc1 (stereo not given)	IC50	16.7
CC[C@@]1(O)C(=O)OCc2c1cc1n(c2=O)Cc2cc3ccccc3nc2-1 [CAMPTOTHECIN]	IC50	8.83
O=C(/C=C/c1ccsc1)c1ccc(OCC2CS2)cc1 (stereo not given)	IC50	50

Looking up O=C(/C=C/c1ccc(OCC2CS2)cc1)c1ccco1 (stereo not given) , I found its IC50 recorded as 24.1

Looking up O=C(/C=C/c1cccs1)c1ccccc1OCC1CO1 (stereo not given) , I found its IC50 recorded as 17.9

Looking up O=C(/C=C/c1ccc(OCC2CO2)cc1)c1ccco1 (stereo not given) , I found its IC50 recorded as 22.2

Looking up COc1cccc2c1C(=O)c1c(O)c3c(c(O)c1C2=O)C[C@@](O)(C(=O)CO)C[C@@H]3O[C@H]1C[C@H](N)[C@H](O)[C@H](C)O1 [DOXORUBICIN HYDROCHLORIDE] , I found its IC50 recorded as 3.6
